The reported numbers originate from PubChem BioAssay (NCI).

Attribute: TGI
# System: CCRF-CEM leukemia
# Procedure summary: NCI tumour cell line growth inhibition, 48 h
Measured quantity: TGI (µM)

1. O=C(/C=C/c1ccc(F)cc1)c1ccc(Cl)cc1Cl :: 52.8
2. O=C(/C=C/c1ccc([N+](=O)[O-])o1)N1CCN(Cc2ccccc2)CC1 :: 27.4
3. CCN(CC)C1Oc2cc3c(cc2C(c2ccc(OC)cc2)C1C)OCO3 (stereo unspecified) :: 34

----------
# System: SF-539 CNS
# Procedure summary: NCI tumour cell line growth inhibition, 48 h
Measured quantity: GI50

1. COc1cc(OC)cc(C2CC(=O)Nc3c2c(C)nn3-c2nc3ccccc3[nH]2)c1 (centres undefined) :: 2.96 µM
2. COc1ccc(/C=N\NC(=O)CN2CCN(c3cc4c(cc3F)c(=O)c(C(=O)N/N=C/c3ccc(OC)c(OC)c3)cn4C3CC3)CC2)cc1OC :: 2.38 µM
3. O=[N+]([O-])c1cc(Cl)c(Cl)c([N+](=O)[O-])c1Cl :: 2.53 µM
4. CCOC(=O)C(Cc1c[nH]c2ccc(N)cc12)(NC(C)=O)C(=O)OCC :: > 1000 µM
5. NOCC(=O)O :: > 100 µM
6. Cc1cc(I)cc(CN(C)CCCN2CCSCC2)c1O :: 23.4 µM
7. CC(C)=CCCC(C)c1ccc(C)c2c1OCN(CC1CCNCC1)C2 (centres undefined) :: 13.7 µM
8. O=S(=O)(NC1=NCCN1C(=S)SN1CCn2c1nsc2=S)c1ccc(Br)cc1 :: 18.6 µM
9. CC12OC(c3ccccc3)=CC(c3ccc(Cl)cc3)=C1C(c1ccccc1)=CC2=O (centres undefined) :: > 100 µM
